test system: OVCAR-8 ovarian; experiment: NCI-60 one-dose screen, 48 h (100 = growth as untreated, 0 = no growth, -100 = all killed); settings: 10 µM unless noted
Compounds without any hit were thinned out: in the full panel of roughly 83,000, 20% have a hit.
Label Met when growth >= 80%; otherwise Not met.

# structureSmiles, group
rows = [
    ("N/N=C(\\N)c1c(N)nc(=S)[nH]c1-c1ccc(Cl)cc1Cl", "Met"),
    ("CCN(CC)C(=O)N/C(N)=N/c1nc2ccccc2s1", "Not met"),
]

Req: Item "O=c1[nH]c2ccc(Cl)cc2cc1CSc1nccc(-c2ccc(Cl)cc2)n1" with growth of 80% or above?
Resp: Not met

Req: Continue with "CCOC(=O)c1ccc(Nc2nc(NN)nc(-c3ccc(OC)cc3)c2C#N)cc1"
Resp: Met

Req: Continue with "COc1ccc2[nH]cc(-c3nnc(N)nc3-c3c[nH]c4ncc(Br)cc34)c2c1"
Resp: Met
